All values here come from BigSolDB 2.1.

- Condition context: in ethanol, 293.15 K
Readout name: solubility (mole fraction)
Reply with just the number.

Exercise: What solubility (mole fraction) value was documented for this molecule, `O=[N+]([O-])c1cn[nH]c1` ?
Key: 0.113

---

- Condition context: in isopentanol, 288.15 K
Readout name: solubility (mole fraction)
Simply state the number, no unit and no words.

Exercise: I'd like to know its solubility (mole fraction). The molecule in question is `O=[N+]([O-])c1cn[nH]c1`
Key: 0.0629

---

- Condition context: in isopropanol, 298.15 K
Readout name: solubility (mole fraction)
Respond using a number only.

Exercise: Which solubility (mole fraction) value is on record for `O=[N+]([O-])c1cn[nH]c1` ?
Key: 0.0675

---

- Condition context: in THF, 323.15 K
Readout name: solubility (mole fraction)
# output: bare number, no unit

Exercise: Can you share its solubility (mole fraction)? I mean this compound: `O=[N+]([O-])c1cn[nH]c1`
Key: 0.017

---

- Condition context: in isobutanol, 308.15 K
Readout name: solubility (mole fraction)
Just the number, please, no unit after it.

Exercise: Which solubility (mole fraction) reading was recorded for the compound `O=[N+]([O-])c1cn[nH]c1` ?
Key: 0.107

---

- Condition context: in ethanol, 303.15 K
Readout name: solubility (mole fraction)
// return a plain number; no unit text

Exercise: Fill in: solubility (mole fraction) of `O=[N+]([O-])c1cn[nH]c1` is ___
Key: 0.147

---

- Condition context: in water, 298.15 K
Readout name: solubility (mole fraction)
Form field (numeric): enter value without unit.

Exercise: I have this compound here, `O=[N+]([O-])c1cn[nH]c1` , and I need its recorded solubility (mole fraction).
Key: 0.0036

---

- Condition context: in isobutanol, 293.15 K
Readout name: solubility (mole fraction)
Reply with just the number.

Exercise: // query solubility (mole fraction) value for entry `O=[N+]([O-])c1cn[nH]c1`
Key: 0.0648

---

- Condition context: in n-pentanol, 313.15 K
Readout name: solubility (mole fraction)
No unit in the answer, please; the number alone is enough.

Exercise: // returns reported solubility (mole fraction) for input `O=[N+]([O-])c1cn[nH]c1`
Key: 0.156

---

- Condition context: in water, 288.15 K
Readout name: solubility (mole fraction)
# output: bare number, no unit

Exercise: Sample `O=[N+]([O-])c1cn[nH]c1` — what was its solubility (mole fraction)?
Key: 0.00217
